test system: A2780; assay: In vitro antitumor activity against A2780cisR cell line.; format: functional, cell-based, Homo sapiens
Known IC50 of a selection of substances
Field format: number, assumed µM, no unit text.

# substance, target-system, result-type, value
data = [
    ("AMMONIO(DICHLORO)[DI(METHYLCARBONYLOXY)]PLATINUM(CYCLOHEXYL)AMMONIUM", "A2780", "IC50", 3),
]

# query: IC50 of entry TRANSPLATIN
260

Entry CISPLATIN please
5.2
